# target or system: Rho-associated protein kinase 2 (Homo sapiens) (UniProt O75116)
# Sequence (O75116 whole entry, looked up): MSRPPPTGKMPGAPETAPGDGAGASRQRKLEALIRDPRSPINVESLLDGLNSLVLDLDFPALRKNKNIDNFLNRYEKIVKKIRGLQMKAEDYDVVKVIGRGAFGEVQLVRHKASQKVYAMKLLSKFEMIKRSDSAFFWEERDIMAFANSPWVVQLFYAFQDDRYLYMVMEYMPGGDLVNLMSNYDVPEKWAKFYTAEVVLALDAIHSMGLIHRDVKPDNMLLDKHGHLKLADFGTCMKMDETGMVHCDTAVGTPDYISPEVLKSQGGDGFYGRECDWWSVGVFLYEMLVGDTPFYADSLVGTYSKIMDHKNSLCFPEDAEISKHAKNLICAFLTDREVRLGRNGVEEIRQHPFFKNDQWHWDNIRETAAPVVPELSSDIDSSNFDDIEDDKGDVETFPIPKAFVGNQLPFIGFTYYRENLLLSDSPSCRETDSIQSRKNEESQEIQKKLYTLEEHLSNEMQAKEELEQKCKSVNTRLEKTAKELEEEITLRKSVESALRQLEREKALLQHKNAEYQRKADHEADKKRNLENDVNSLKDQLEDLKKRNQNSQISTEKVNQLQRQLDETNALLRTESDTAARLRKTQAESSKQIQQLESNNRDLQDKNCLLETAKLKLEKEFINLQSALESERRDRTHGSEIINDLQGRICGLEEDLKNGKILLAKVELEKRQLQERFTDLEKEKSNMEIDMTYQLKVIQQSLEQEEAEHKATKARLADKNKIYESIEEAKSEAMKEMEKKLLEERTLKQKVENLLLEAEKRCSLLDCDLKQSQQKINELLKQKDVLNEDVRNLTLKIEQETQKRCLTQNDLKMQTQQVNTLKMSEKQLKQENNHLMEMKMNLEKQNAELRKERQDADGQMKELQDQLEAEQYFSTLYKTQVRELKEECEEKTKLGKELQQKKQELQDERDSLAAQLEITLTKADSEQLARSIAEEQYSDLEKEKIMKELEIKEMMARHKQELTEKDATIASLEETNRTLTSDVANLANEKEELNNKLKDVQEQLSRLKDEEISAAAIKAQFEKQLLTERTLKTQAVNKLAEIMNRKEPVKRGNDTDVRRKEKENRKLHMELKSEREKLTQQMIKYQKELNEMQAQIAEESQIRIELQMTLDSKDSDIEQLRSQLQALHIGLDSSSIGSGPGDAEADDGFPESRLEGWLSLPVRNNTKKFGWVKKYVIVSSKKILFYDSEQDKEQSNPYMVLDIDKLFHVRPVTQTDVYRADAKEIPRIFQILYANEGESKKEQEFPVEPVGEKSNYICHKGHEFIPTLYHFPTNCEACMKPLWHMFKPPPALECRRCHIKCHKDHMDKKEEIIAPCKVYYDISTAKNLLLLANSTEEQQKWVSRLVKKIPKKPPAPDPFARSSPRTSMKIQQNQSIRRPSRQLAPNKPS
# assay: Inhibition of ROCK2 at 10 uM by HTRF assay relative to control
Reported values of inhibition for individual entries
quantity kind: inhibition

compound: Cc1cccc(Oc2ccnc(N3CCN(CC(=O)Nc4cccc5c4CCCC5)CC3)n2)c1
result: 0%
//
compound: Cc1cccc(Oc2ccnc(N3CCC[C@H]3C(=O)NCc3cccnc3)n2)c1
result: 0%
//
compound: Cc1cccc(N(C)c2cc(N3CCN(CC(=O)Nc4nc(-c5ccccc5)cs4)CC3)ncn2)c1
result: 0%
//
compound: Cc1cccc(N(C)c2cc(Nc3cccc(C(=O)N(CC(C)C)CC(C)C)c3)ncn2)c1
result: 0%
//
compound: COC[C@@H]1CCCN1C(=O)[C@@H]1CCCN1c1nccc(Nc2ccccc2)n1
result: 3%
//
compound: Cc1cccc(N(C)c2cc(N3CCN(C(=O)Cc4c[nH]c5ccccc45)CC3)ncn2)c1
result: 0%
//
compound: O=C(CN1CCN(c2ncnc3c2CN(Cc2ccccc2)CC3)CC1)Nc1cc(F)ccc1F
result: 0%
//
compound: Cc1cccc(N(C)c2cc(Nc3cccc(C(=O)NCc4ccc(N(C)C)cc4)c3)ncn2)c1
result: 0%
//
compound: Cc1cccc(N(C)c2cc(Nc3ccc(CC(=O)Nc4ccc5ncsc5c4)cc3)ncn2)c1
result: 22%
//
compound: Nc1nc(Nc2ccc3ncsc3c2)cc(N2CCC[C@H]2C(=O)NCCc2cccc(I)c2)n1
result: 1%
//
compound: Cc1ccc(CN2CCN(c3nccc(C(C#N)c4ccccn4)n3)CC2)cc1 (stereo not drawn)
result: 0%
//
compound: O=C(C1CCN(c2nccc(Nc3ccccc3)n2)CC1)N1CC[C@@H](O)C1
result: 0%
//
compound: O=C(NC1Cc2ccccc2C1)c1cccc(Nc2ccnc(N3CCN(c4ccccc4)CC3)n2)c1
result: 1%
